Test system: Vero E6 infected with SARS-CoV-2
Test: morphology score (similarity to uninfected cells); higher = more like uninfected cells
Conditions: 24 h

Compound | morphology score
CC(=O)Nc1ccc(OC(C)=O)cc1 [diacetamate] (10 µM) | 0.116
Cn1c(Nc2ccc(C(F)(F)F)cc2)nc2cc(Oc3ccnc(-c4ncc(C(F)(F)F)[nH]4)c3)ccc21 (10 µM) | -0.041
COC(=O)Nc1nc2cc(C(=O)c3cccs3)ccc2[nH]1 [nocodazole] (0.833333 µM) | 0.025
Cc1ccccc1-n1c(Cn2ncc3c(N)ncnc32)nc2cccc(C)c2c1=O (10 µM) | 0.373
O=C(O)C(=O)CBr [3-bromopyruvate] (10 µM) | -0.102
C[C@H](CSC(=O)c1ccccc1)C(=O)N1C[C@@H](Sc2ccccc2)C[C@H]1C(=O)O [zofenopril-calcium] (10 µM) | 0.0896
O=c1[nH]c(=O)c2ccccc2o1 [carsalam] (10 µM) | 0.265
O=C(O)c1ccccc1O [salicylic-acid] (10 µM) | 0.0239
NCC(=O)O (10 µM) | 0.146
Nc1nc2ccc(Cl)cc2c2nc(-c3ccco3)nn12 (10 µM) | 0.125

----------
Tested on: Vero E6 infected with SARS-CoV-2
Assay: inhibition of SARS-CoV-2 cytopathic effect; higher = more antiviral protection, active = above 15
Conditions: 10000 nM; 48 h
Recorded measurements of inhibition of SARS-CoV-2 cytopathic effect, one per entry
Measured parameter: inhibition of SARS-CoV-2 cytopathic effect (%)

Molecule | Reported
O=C(O)COc1cccc(-c2ocnc2-c2nc(-c3ccccc3)c(-c3ccccc3)o2)c1 | 3.01
CCC(CC)Nc1cc(C)nc(Oc2c(C)cc(C)cc2C)c1C | -1.59
Nc1nc(OCc2cc(Br)cs2)c2[nH]cnc2n1 [lomeguatrib] | 0.11
CCCCOc1cc(CC2CNC(=O)N2)ccc1OC (centres undefined) | -1.88
COc1cccc2c1C(=O)c1c(O)c3c(c(O)c1C2=O)C[C@@](O)(C(=O)CO)C[C@@H]3O[C@H]1C[C@H](N)[C@H](O[C@@H]2CCCCO2)[C@H](C)O1 [pirarubicin] | -2.07
CC(C)(O)CNc1nc(Nc2ccnc(C(F)(F)F)c2)nc(-c2cccc(C(F)(F)F)n2)n1 [enasidenib] | -1.07
O=[N+]([O-])O[C@H]1CO[C@H]2[C@@H]1OC[C@H]2O[N+](=O)[O-] [isosorbide-dinitrate] | 3.34
CN(C)CCOC(=O)C(c1ccccc1)C1(O)CCCC1 (centres undefined) [cyclopentolate] | -1.17
Cc1c(C(=O)Nc2ccc(N3C[C@@H](C)O[C@@H](C)C3)nc2)cccc1-c1ccc(OC(F)(F)F)cc1 [sonidegib] | -7.02

----------
Tested on: Vero E6 infected with SARS-CoV-2
Assay: morphology score (similarity to uninfected cells); higher = more like uninfected cells
Settings: 24 h
Label rule, in plain words: morphology score of 0.06 and up is y, under 0.06 is n.

Compound | Qualitative label
COc1cc2nc(N3CCN(C(=O)C4CCCO4)CC3)nc(N)c2cc1OC (stereo unspecified) [terazosin] (10 µM) | n
C=CC(C)(C)c1cc(/C=C/C(=O)c2ccc(O)cc2)c(OC)cc1O [licochalcone-A] (10 µM) | n
CCN(CC)CCNC(=O)COc1ccc(OC)cc1 [mefexamide] (10 µM) | n
OCCCNc1ccccc1 [3-anilinopropan-1-ol] (10 µM) | n
CO[C@@]1(NC(=O)C2SC(=C(C(N)=O)C(=O)O)S2)C(=O)N2C(C(=O)O)=C(CSc3nnnn3C)CS[C@@H]21 (stereo partly specified) [cefotetan] (10 µM) | y
CN1CC(=O)N=C1NC(=O)Nc1cccc(Cl)c1 [fenobam] (10 µM) | n
N[C@@H](Cn1oc(=O)[nH]c1=O)C(=O)O [L-quisqualic-acid] (10 µM) | n
CC(C)(C)C(=O)OCOC(=O)[C@@H]1N2C(=O)[C@@H](NC(=O)[C@H](N)c3ccccc3)[C@H]2SC1(C)C [pivampicillin] (10 µM) | n
Cc1cc(-c2nc(C(=O)Nc3cn(C4CCOCC4)nc3C(N)=O)co2)ccn1 (10 µM) | n
COC(=O)C1=C(C#N)NC(C)=C(C(=O)OC(C)C)C1c1cccc([N+](=O)[O-])c1 (stereo unspecified) [nilvadipine] (10 µM) | n
COC(=O)C1=C(C)NC(C)=C(C(=O)OCCN2CCN(C(c3ccccc3)c3ccccc3)CC2)C1c1cccc([N+](=O)[O-])c1 (stereo unspecified) [manidipine] (10 µM) | y
C[C@@H](O)[C@H]1C(=O)N2C(C(=O)O)=C([C@H]3CCCO3)S[C@H]12 [faropenem] (10 µM) | y
CC(C)NCC(O)COc1ccc(COCCOC(C)C)cc1 (stereo unspecified) [bisoprolol] (10 µM) | n
Cc1cc2cc3c(C)cc(=O)oc3c(C)c2o1 [trioxsalen] (10 µM) | y
C=C[C@@H]1C[C@]1(NC(=O)[C@@H]1C[C@@H](Oc2ncc(OC)c3ccc(Cl)cc23)CN1C(=O)[C@@H](NC(=O)OC(C)(C)C)C(C)(C)C)C(=O)NS(=O)(=O)C1CC1 [asunaprevir] (10 µM) | y
COc1ccccc1N1CCN(CCCCN2C(=O)c3ccccc3C2=O)CC1 (10 µM) | y
